The values you see were collected from the supplement of paper PMC3334620.

PBM E-score overview
- system under test: Cst6 (UniProt P40535)
- Sequence (P40535 whole entry): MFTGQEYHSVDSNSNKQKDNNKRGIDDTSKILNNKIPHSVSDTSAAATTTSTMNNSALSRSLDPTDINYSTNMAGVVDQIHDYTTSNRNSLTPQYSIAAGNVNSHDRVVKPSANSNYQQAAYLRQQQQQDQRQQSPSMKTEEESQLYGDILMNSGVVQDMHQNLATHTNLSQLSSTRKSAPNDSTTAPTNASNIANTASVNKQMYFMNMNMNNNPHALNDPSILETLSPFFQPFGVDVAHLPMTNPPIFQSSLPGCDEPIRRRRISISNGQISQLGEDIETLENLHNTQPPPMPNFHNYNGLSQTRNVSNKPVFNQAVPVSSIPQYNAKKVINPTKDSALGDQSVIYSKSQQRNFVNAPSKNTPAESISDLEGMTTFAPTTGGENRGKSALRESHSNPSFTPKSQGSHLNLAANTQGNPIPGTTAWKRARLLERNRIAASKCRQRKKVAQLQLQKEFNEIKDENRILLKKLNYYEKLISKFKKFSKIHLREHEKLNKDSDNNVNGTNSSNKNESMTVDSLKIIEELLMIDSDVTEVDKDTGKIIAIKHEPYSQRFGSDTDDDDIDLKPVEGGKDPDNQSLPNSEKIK
- run description: PBM E-score (8-mer binding enrichment) (E-score (-0.5 to 0.5)); higher = stronger / more preferred TF binding
- details: protein concentration: 200 nM; construct: GST-DNA-binding domain
Over roughly 33,000 sequences, “E-score (-0.5 to 0.5)” has its median near -0.016; the highest 2% begin near 0.31. Shown is part of a subset that was picked to be rich in the highest values.
Please respond with just the number, no unit label.

As a guide, the following entries are already answered.
AACAGAAC :: 0.032
CCCAGGGC :: -0.337
ATAGTGAA :: -0.00864
AAAGGGGC :: -0.196
TAAAGTCA :: 0.0375
GTAGTGAC :: 0.332
AATGCACG :: 0.0682
GCAGTGAC :: 0.17
TCGCCTAA :: -0.0175
GTAGTGAA :: 0.0467

Let us examine a further case.
So, CCGTACCG ? Its PBM E-score was -0.0599

---

# key: entry, value: PBM E-score
- system under test: Cst6 (UniProt P40535)
- run description: PBM E-score (8-mer binding enrichment) (E-score (-0.5 to 0.5)); higher = stronger / more preferred TF binding
- details: protein concentration: 200 nM; construct: GST-DNA-binding domain
Over roughly 33,000 sequences, “E-score (-0.5 to 0.5)” has its median near -0.016; the highest 2% begin near 0.31. Only a selection was taken, and the highest values are over-represented in it overall.
Answer field: number only, no words.

Reference set, count: 2
AAGGAGAG :: -0.258
ATTGAAAA :: 0.31

PBM E-score for Cst6 (UniProt P40535) with input CCTCAACG equals -0.102

Reading of PBM E-score for CCTCATCG with Cst6 (UniProt P40535): 0.00595

---

- system under test: Cst6 (UniProt P40535)
- run description: PBM E-score (8-mer binding enrichment) (E-score (-0.5 to 0.5)); higher = stronger / more preferred TF binding
- details: protein concentration: 200 nM; construct: GST-DNA-binding domain
In all, about 33,000 sequences were measured (“E-score (-0.5 to 0.5)”: median about -0.016, highest 2% from about 0.31 on). The sample holds the highest values, similar sequences and a random draw of the others, so the mix is not that of the screen.
quantity kind: PBM E-score
API doc: respond with a numeric literal and nothing else, no unit.

Observe how each entry below is paired with its result.
AATTACAT :: 0.318
AATTACAC :: 0.116
AGTTACGC :: 0.0936

Lookup result for AATAATTC ; measured PBM E-score: 0.205

GET /value?item= ACGGGACA &field=PBM E-score returns -0.177

The recorded PBM E-score for GGTAGGCA is -0.184

// sample CGGCCTCA , its PBM E-score was -0.0129

---

- system under test: Cst6 (UniProt P40535)
- run description: PBM E-score (8-mer binding enrichment) (E-score (-0.5 to 0.5)); higher = stronger / more preferred TF binding
- details: protein concentration: 200 nM; construct: GST-DNA-binding domain
The full ranking holds about 33,000 sequences; the median of “E-score (-0.5 to 0.5)” is about -0.016, and the highest 2% start at about 0.31. Shown is part of a subset that was picked to be rich in the highest values.
quantity kind: PBM E-score
Give the figure only, with no unit attached.

Guide cases for PBM E-score, answers given:
GCTCGGCA :: -0.0691
AACGGCAC :: 0.343

Record for AAATGACG under target or system Cst6 (UniProt P40535): PBM E-score reported as 0.466

Item ACGGTGAC ; assay system Cst6 (UniProt P40535); PBM E-score reported as 0.307

Noted PBM E-score for AACGGCAA , tested on Cst6 (UniProt P40535): 0.251

# value of PBM E-score, Cst6 (UniProt P40535), item CCGGGTTA = -0.281

Param item: CACGGCAC ; param system: Cst6 (UniProt P40535); output PBM E-score: 0.356

Let me check: CACGGCAA , system Cst6 (UniProt P40535), measured PBM E-score is 0.302

Case ACGGTGAT , Cst6 (UniProt P40535), PBM E-score recorded as 0.121

PBM E-score value, target or system Cst6 (UniProt P40535), for ATGTTTCG : 0.263

Case ATACATCA , Cst6 (UniProt P40535), PBM E-score recorded as 0.398

The sequence AACGGCAG on Cst6 (UniProt P40535): PBM E-score was 0.134

Log: Cst6 (UniProt P40535), sequence ATACATAT , PBM E-score = 0.337
